test: Drug distribution in Sprague-Dawley rat stomach tissue measured at 24 hrs
Assay type: ADME, tissue-based
settings: read-out: Ct
reported property: concentration at 24 h (ng/g)
Please respond with the number in ng/g and leave the unit unwritten.

Entry CO[C@H]1/C=C/O[C@@]2(C)Oc3c(C)c(O)c4c(c3C2=O)C2=NC3(CCN(CCn5c([N+](=O)[O-])cnc5C)CC3)NC2=C(NC(=O)/C(C)=C\C=C\[C@H](C)[C@H](O)[C@@H](C)[C@@H](O)[C@@H](C)[C@H](OC(C)=O)[C@@H]1C)C4=O [RIFASUTENIZOL] has what concentration at 24 h? 14.4
